biological target: CYP3A4 (Homo sapiens); assay: Inhibition of human microsomal CYP3A4 expressed in baculovirus infected BTI-TN-5B1-4 cells at 10 uM incubated for 30 mins by luciferase assay relative to control; format: ADME
Sequence (P08684 whole entry): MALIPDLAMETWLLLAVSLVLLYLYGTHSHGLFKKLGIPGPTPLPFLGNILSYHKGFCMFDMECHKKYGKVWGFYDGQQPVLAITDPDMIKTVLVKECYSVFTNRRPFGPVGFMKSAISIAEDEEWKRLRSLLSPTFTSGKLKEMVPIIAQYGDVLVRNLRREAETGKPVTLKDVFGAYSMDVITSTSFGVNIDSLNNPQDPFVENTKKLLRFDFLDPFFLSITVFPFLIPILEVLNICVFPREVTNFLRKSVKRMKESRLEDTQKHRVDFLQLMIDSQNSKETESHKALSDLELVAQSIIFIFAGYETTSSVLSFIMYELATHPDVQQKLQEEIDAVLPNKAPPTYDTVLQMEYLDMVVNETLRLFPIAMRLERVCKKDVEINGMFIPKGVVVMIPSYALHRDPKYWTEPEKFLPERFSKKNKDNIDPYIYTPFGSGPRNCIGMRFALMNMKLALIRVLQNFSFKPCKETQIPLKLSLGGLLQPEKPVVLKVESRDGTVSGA
The entries below come with measured inhibition at 0.5 h, 10 µM values attached.
Give the value, in units of %, as a plain number.

Ask: Consider the molecule NC(=S)N/N=C/c1csc2ccccc12 and give its measured inhibition at 0.5 h, 10 µM.
Reply: 5.98

Ask: Further, for N/C(S)=N/N=C/c1ccc([N+](=O)[O-])cc1 ?
Reply: 8.17

Ask: Further, for NC(=S)N/N=C/c1cccc(-c2ccccc2)c1 ?
Reply: 5.26

---

test: Selectivity index, ratio of CC50 for human A549 cells to EC50 for Trypanosoma brucei Lister 427 bloodstream form; format: toxicity; conditions: read-out: Ratio CC50/EC50
MEASURE: selectivity ratio
Form field (numeric): enter value without unit.

- NC(=S)N/N=C/c1ccc(OCc2ccc(Cl)c(Cl)c2)cc1: 8

Please examine the following record next.
Ask: Consider the compound COc1ccc(-c2cccc(/C=N/NC(N)=S)c2)cc1OC and give its measured selectivity ratio.
Reply: 7

---

biological target: UniProt Q581W1; experiment: Inhibition of Trypanosoma brucei PTR1 at 50 uM using H2B as substrate in presence of NADPH by photometric analysis relative to control
Sequence (Q581W1 as listed by the source): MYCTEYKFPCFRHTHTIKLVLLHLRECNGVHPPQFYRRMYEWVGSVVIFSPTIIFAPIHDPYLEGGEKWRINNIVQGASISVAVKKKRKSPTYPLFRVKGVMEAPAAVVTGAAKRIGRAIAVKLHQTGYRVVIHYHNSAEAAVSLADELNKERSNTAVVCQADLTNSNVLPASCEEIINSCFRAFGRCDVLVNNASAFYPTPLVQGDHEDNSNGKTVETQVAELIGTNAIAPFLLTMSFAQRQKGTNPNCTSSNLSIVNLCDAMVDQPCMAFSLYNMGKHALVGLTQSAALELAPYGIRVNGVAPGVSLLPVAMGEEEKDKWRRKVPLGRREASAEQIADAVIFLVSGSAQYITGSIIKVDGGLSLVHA
# inhibition >= 9% gives Condition met, anything below gives Condition not met

* NC(=S)N/N=C/c1ccccc1O | Condition met
* COc1ccc(-c2cccc(/C=N/NC(N)=S)c2)cc1OC | Condition not met
* CSc1ccc(/C=N/NC(N)=S)cc1 | Condition met
* NC(=S)N/N=C/c1ccc2ncccc2c1 | Condition met
* N/C(S)=N/N=C/c1cccc(Br)c1 | Condition met
* COc1ccc(/C=N/NC(N)=S)cc1OC | Condition met

// switching to the query compound
Ask: Exam item: decide whether the reported inhibition for NC(=S)N/N=C/c1csc2ccccc12 is at least 9%.
Reply: Condition not met

---

experiment: Cytotoxicity against human A549 cells assessed as growth inhibition at 10 uM after 48 hrs by CellTiter-Glo assay relative to control; values are per cent of control; settings: A549 cells
The entries below come with measured cell growth (% of control) at 48 h, 10 µM values attached.

Worked cases, answers included:
* CN(C)c1ccc(/C=N/N=C(/N)S)c2ccccc12 | 122%
* NC(=S)N/N=C/C=C/c1ccccc1 | 129%
* NC(=S)N/N=C/c1ccc(N)cc1 | 125%
* C/C(=N\NC(N)=S)c1ccc(O)cc1 | 126%
* NC(=S)N/N=C/c1ccco1 | 124%

Please examine the following record next.
Ask: Consider the compound NC(=S)N/N=C/c1ccc(OCc2ccc(Cl)c(Cl)c2)cc1 and give its measured cell growth (% of control) at 48 h, 10 µM.
Reply: 72.5%

---

molecular target: Pteridine reductase 1 (Leishmania major) (UniProt Q01782); assay: Inhibition of Leishmania major PTR1 at 50 uM using H2B as substrate in presence of NADPH by photometric analysis relative to control
Sequence (Q01782 whole entry): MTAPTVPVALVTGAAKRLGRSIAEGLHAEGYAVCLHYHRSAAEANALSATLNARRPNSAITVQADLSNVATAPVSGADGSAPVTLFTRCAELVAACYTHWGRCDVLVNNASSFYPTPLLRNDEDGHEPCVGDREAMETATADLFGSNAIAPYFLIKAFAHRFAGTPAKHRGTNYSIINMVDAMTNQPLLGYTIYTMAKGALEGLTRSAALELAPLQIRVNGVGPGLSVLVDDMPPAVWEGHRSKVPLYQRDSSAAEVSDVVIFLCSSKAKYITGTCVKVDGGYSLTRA
MEASURE: inhibition
Answer as a quantity: numeral, then unit.

Worked cases, answers included:
• CSc1ccc(/C=N/NC(N)=S)cc1 = 11.2%
• NC(=S)N/N=C/c1ccccc1O = 7.6%
• N/C(S)=N/N=C/c1cccc(Br)c1 = 18.4%
• NC(=S)N/N=C/c1csc2ccccc12 = 4.9%

Ask: Consider the compound NC(=S)N/N=C/C=C/c1ccccc1 and give its measured inhibition.
Reply: 9.09%

Ask: Further, for COc1cc(/C=N/NC(N)=S)ccc1O ?
Reply: 9.85%

Ask: Further, for N/C(S)=N/N=C/c1ccc(Cl)c(Cl)c1 ?
Reply: 9.38%

Ask: Further, for NC(=S)N/N=C/c1ccc(OCc2ccc(Cl)c(Cl)c2)cc1 ?
Reply: 0.59%
